Origin of the recorded values: ChEMBL document CHEMBL1201862

# Test system: PC-3
# ASSAY NAME: NCI tumour cell line growth inhibition, 48 h
The source made the active and inactive calls. Cut-off read from the data, not from the text of the source: active = GI50 up to about 1.1 µM and inactive = higher.
Could you please pick one outcome from this set? active, inactive

Known results for compounds:
CN(C)c1ccc(/C=C(\NC(=O)c2ccccc2)C(=O)NC(CCC(=O)O)C(=O)O)cc1 (configuration not stated): inactive
O=c1[nH]nc(-c2cccc([N+](=O)[O-])c2)[nH]1: inactive
COCn1c2ccc(OC(C)=O)cc2c2c(=O)oc(C)nc21: inactive

Here is the next item to consider.
Hey, what did the test say about Cc1ccc2c(=O)[nH]sc2c1 ? inactive

----------
# Test system: SR
# ASSAY NAME: NCI tumour cell line growth inhibition, 48 h
Calls of active or inactive are those of the source. No stated cut-off is given here; in the data, active = GI50 up to about 1.1 µM and inactive = higher.
Could you please pick one outcome from this set? t for active, f for inactive

O=S(=O)(/C=C/c1ccc(Cl)cc1Cl)Cc1ccccc1CS(=O)(=O)/C=C/c1ccc(Cl)cc1Cl: f
CCOC(=O)c1nc2ccc(OC)cc2c2c1Cc1ccccc1-2: f
CCOC(=O)c1cccc(NC(=O)CBr)c1: t
c1csc(-c2ccc(-c3ccc(-c4ccc(-c5cccs5)s4)s3)s2)c1: f
OCC1C2C=CC(O2)[C@H]1CO (stereo partly specified): f
CCN(CC)C(=O)C1=C(C)NC(C)=C(C(=O)N(CC)CC)C1: f

Hey, what did the test say about COc1cc(C2c3cc4c(cc3C(=O)C3CCC(=O)N32)OCO4)cc(OC)c1O (stereo unspecified) ? f

Hey, what did the test say about O=CC1=CCC2c3[nH]c4ccccc4c3CCN2C1 (stereo unspecified) ? f

Hey, what did the test say about COc1ccc(CC2NCCc3cc(OC)c(OC)cc32)cc1Br (stereo unspecified) ? f

Hey, what did the test say about N#C[C@@H](c1nc2ccccc2s1)c1ncccc1[N+](=O)[O-] ? f

Hey, what did the test say about c1ccc(C2[C@@H]3CCCc4ccccc4C3=NN2c2ccccc2)cc1 (stereo partly specified) ? f
